Assay system cathepsin B (Homo sapiens, UniProt P07858); read-out recorded as IC50.

{"MOLECULE": "CC(C)C[C@@H]1NC(=O)[C@@H](NC(=O)OCc2ccccc2)Cc2ccc(cc2)OCCCC[C@@H](C(O)C#N)NC1=O (some centres unmarked) [Compound 80]", "RESULT_OPERATOR": "=", "IC50 (µM)": 2.4}
{"MOLECULE": "CC(C)C[C@@H]1NC(=O)[C@@H](NC(=O)OCc2ccccc2)Cc2ccc(cc2)OCCCC[C@@H](CN=[N+]=[N-])NC1=O [Compound 79]", "RESULT_OPERATOR": ">", "IC50 (µM)": 50}
{"MOLECULE": "CC(C)C[C@@H]1NC(=O)[C@@H](NC(=O)OCc2ccccc2)Cc2ccc(cc2)OCCCC[C@@H](C=O)NC1=O [Compound 9]", "RESULT_OPERATOR": "=", "IC50 (µM)": 0.07}
{"MOLECULE": "CC(C)C[C@@H]1NC(=O)[C@@H](NC(=O)OCc2ccccc2)Cc2ccc(cc2)OCCCC[C@@H](CO)NC1=O [Compound 8]", "RESULT_OPERATOR": "=", "IC50 (µM)": 0.29}
{"MOLECULE": "CC(C)C[C@@H]1NC(=O)[C@@H](NC(=O)OCc2ccccc2)Cc2ccc(cc2)OCCCCC[C@@H](CO)NC1=O [Compound 27]", "RESULT_OPERATOR": "=", "IC50 (µM)": 1.1}
